- Test Target: OATP1B3 (Homo sapiens, UniProt Q9NPD5)
- Construct: host or cells: A431
- Sequence (Q9NPD5 1-702): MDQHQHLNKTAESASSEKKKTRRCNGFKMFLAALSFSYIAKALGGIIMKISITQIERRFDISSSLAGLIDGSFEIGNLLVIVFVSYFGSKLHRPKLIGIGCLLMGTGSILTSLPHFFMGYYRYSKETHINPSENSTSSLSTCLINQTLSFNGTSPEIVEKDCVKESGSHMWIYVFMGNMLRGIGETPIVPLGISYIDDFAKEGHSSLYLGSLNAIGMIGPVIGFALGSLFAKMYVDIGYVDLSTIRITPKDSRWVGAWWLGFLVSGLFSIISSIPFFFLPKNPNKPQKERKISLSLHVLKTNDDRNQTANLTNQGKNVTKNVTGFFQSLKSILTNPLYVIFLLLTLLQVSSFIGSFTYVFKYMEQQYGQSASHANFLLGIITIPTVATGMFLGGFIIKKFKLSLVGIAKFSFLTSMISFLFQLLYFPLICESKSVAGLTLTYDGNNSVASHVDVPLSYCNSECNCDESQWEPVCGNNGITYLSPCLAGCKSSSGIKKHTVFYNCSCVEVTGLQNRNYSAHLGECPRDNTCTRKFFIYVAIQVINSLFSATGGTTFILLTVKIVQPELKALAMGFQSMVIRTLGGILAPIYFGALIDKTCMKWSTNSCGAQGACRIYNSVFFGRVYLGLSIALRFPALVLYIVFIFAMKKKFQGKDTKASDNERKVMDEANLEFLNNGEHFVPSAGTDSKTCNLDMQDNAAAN
- Assay Details: OATP1B3-mediated pyranine uptake in A431 cells overexpressing OATP1B3
- Type: cell-based
- Condition Set: 20 μM pyranine, 30 min
Readout Label: concentration causing statistically significant (p < 0.01) inhibition, OATP1B3 (µM)
Your answer is read as µM, so omit the unit and give the number.

Record O=c1c(O)c(-c2ccc(O)c(OS(=O)(=O)O)c2)oc2cc(O)cc(O)c12 [Q3′S, quercetin-3′-sulfate] / OATP1B3 (Homo sapiens, UniProt Q9NPD5), concentration causing statistically significant (p < 0.01) inhibition, OATP1B3 recorded as 1.3

concentration causing statistically significant (p < 0.01) inhibition, OATP1B3 of O=C(O)C1OC(Oc2c(-c3ccc(O)c(O)c3)oc3cc(O)cc(O)c3c2=O)C(O)C(O)C1O (centres unmarked) [Q3G, quercetin-3-glucuronide] , assay on OATP1B3 (Homo sapiens, UniProt Q9NPD5), is 3.1

concentration causing statistically significant (p < 0.01) inhibition, OATP1B3 of COc1cc(-c2oc3cc(O)cc(O)c3c(=O)c2OC2OC(C(=O)O)C(O)C(O)C2O)ccc1O (centres unmarked) [I3G, isorhamnetin-3-glucuronide] , assay on OATP1B3 (Homo sapiens, UniProt Q9NPD5), is 6.3

Record O=c1c(O)c(-c2ccc(O)c(O)c2)oc2cc(O)cc(O)c12 ; system OATP1B3 (Homo sapiens, UniProt Q9NPD5); concentration causing statistically significant (p < 0.01) inhibition, OATP1B3 = 2.5

Bench note, OATP1B3 (Homo sapiens, UniProt Q9NPD5): COc1cc(-c2oc3cc(O)cc(O)c3c(=O)c2O)ccc1O , concentration causing statistically significant (p < 0.01) inhibition, OATP1B3 reads 3.1

All figures here come from paper PMC7468908.
